Origin of measurements: patent US20140329863A1

- METHOD NOTES: Multiple-dose (three-day) pharmacokinetic studies in FVB mice, drug in liquid diet
- Format: in vivo, mouse
- REPORTED CONDITIONS: FVB, mouse, brain, oral; 3 days in liquid diet, 40, 80, 130, 210 mg/kg/day; read-out: brain concentration
- Procedure: Aminothiazole analog (e.g., 4.5 g of 27) was added to 15 mL of pure PEG400, vortexed and sonicated to ensure dissolution, then stored at −4° C. until needed. […] Plasma and brain homogenate samples were extracted using a protein-precipitation method and analyzed by specific LC/MS/MS methods developed for each compound dosed in vivo. […]
Record form. Attribute: concentration at 3 days. Fill in for each entry.

Reported concentration at 3 days for c1ccc2cc(Nc3nc(-c4ccncc4)cs3)ncc2c1 : what is it?
≤ 1000 nM

Reported concentration at 3 days for COc1ccc(-c2csc(Nc3ccc4ccccc4n3)n2)cc1OC : what is it?
≤ 1000 nM

Reported concentration at 3 days for COc1ccc(-c2csc(Nc3cc4ccccc4cn3)n2)cc1OC : what is it?
≤ 1000 nM

Reported concentration at 3 days for c1ccc2cc(Nc3nc(-c4cc5ccccc5o4)cs3)ncc2c1 : what is it?
≤ 1000 nM
